Source listed as patent US20120309728A1.

# System: H295R cells
# protocol: cells
# protocol.conditions: Homo sapiens, NCI-H295R, 24 h, read-out: IC50 of cytotoxic drug (concentration inhibiting cell growth by 50%)
experimental.readout: IC50

structure: COc1cccc2c1C(=O)c1c(O)c3c(c(O)c1C2=O)C[C@@](O)(C(=O)CO)C[C@@H]3O[C@H]1C[C@H](N)[C@H](O)[C@H](C)O1
target.or.system: H295R cells
measured: 20.6 µM
